assayProtocol: GAPDH versus PEG-3 reporter suppression – cell-based, luminescence, counter-screen for PEG-3 promoter inhibitor project, SAR follow-up (AID 651551)
assayContext: HeLa PEG-Prom / GAPDH luciferase reporter, 6 or 24 h; GAPDH; mean of runs, 24 h
Active and inactive are the calls of the source.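 How the source made its calls: active means compounds blocking the Peg3 reporter with IC50 up to 10 µM at 6 or 24 hours, yet inert on a control reporter; inactive means the rest.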
Labels: 1 (active), -1 (inactive)

recordSmiles	labelClass
Cc1nc(NC(=O)c2ccccc2)sc1-c1csc(Nc2ccccc2Cl)n1	1
CCCn1nc(C(=O)Nc2nc(-c3ccncc3)cs2)c2ccccc2c1=O	1
COc1ccc(-n2nc(C(=O)NCC(=O)Nc3cc(OC)c(OC)c(OC)c3)c3ccccc3c2=O)cc1OC	1
Cc1cc(NC(=O)c2cccc(C)c2C)n(-c2nc3ccccc3[nH]2)n1	-1
Cc1cc(NC(=O)c2ccccc2)n(-c2nc3ccccc3n2C)n1	-1
